Hello, the source for this data is patent US20250092056A1, in case you need it.

Target: Recombinant SARS-CoV-2 3CL Protease (Severe acute respiratory syndrome coronavirus 2 (2019-nCoV) (SARS-CoV-2), UniProt P0DTD1)
Experiment: biochemical
Type: biochemical
Settings: 50% SARS-CoV-2 3CL protease inhibitory concentration; read-out: IC50
pIC50: −log10 of the molar value.
reportedProperty: pIC50

                                    compound       reading
 0  N#CCn1c(N2CCC(F)(F)CC2)c(-c2csc3ccccc23)c(=O)n(-c2cncc(Cl)c2)c1=O        > 8.00
 1  N#CCn1c(N2CC(OC(F)F)C2)c(-c2ccc(F)c(Cl)c2)c(=O)n(-c2cncc(C#N)c2)c1=O        > 8.00
 2  N#CCn1c(N2CCC(C(F)F)CC2)c(-c2ccc(F)c(C(F)F)c2)c(=O)n(-c2cncc(C#N)c2)c1=O        > 8.00
 3  Cc1cncc(-n2c(=O)c(-c3ccc(F)c(Cl)c3)c(-c3cc4ccccc4[nH]3)n(CC#N)c2=O)c1        > 8.00
 4  N#CCn1c(N2CC3(CCOC3)C2)c(-c2ccc(F)c(Cl)c2)c(=O)n(-c2cncc(C(F)(F)F)n2)c1=O        > 8.00
 5  Cc1cncc(-n2c(=O)c(-c3ccc(F)c(Cl)c3)c(C3=CCOCC3)n(CC#N)c2=O)c1        > 8.00
 6  COc1cncc(-n2c(=O)c(-c3ccc(F)c(Cl)c3)c(N3CC4(C3)CC(F)(F)C4)n(CC#N)c2=O)n1        > 8.00
 7  N#CCn1c(N2CC(O)C2)c(-c2ccc(F)c(F)c2)c(=O)n(-c2cncc(Cl)c2)c1=O        > 8.00
 8  N#CCn1c(N2CCC(F)(F)CC2)c(-c2cc(Cl)cc(C#N)c2)c(=O)n(-c2cncc(Cl)c2)c1=O        > 8.00
 9  CC1(C)CCN(c2c(-c3ccc(F)c(Cl)c3)c(=O)n(-c3cc4n(c(=O)c3)CCC4)c(=O)n2CC#N)CC1        < 7.00
10  N#CCn1c(N2CC[C@@](O)(c3ccccc3)C2)c(-c2ccc(F)c(Cl)c2)c(=O)n(-c2cncc(Cl)c2)c1=O (single isomer, unassigned)        > 8.00
11  N#CCn1c(N2CC3(CCOC3)C2)c(-c2ccc(F)c(Cl)c2)c(=O)n(-c2cc(C(F)(F)F)[nH]c(=O)c2)c1=O  7.00 to 8.00
12  Cc1cncc(-n2c(=O)c(-c3ccc(F)c(Cl)c3)c(N3Cc4cn[nH]c4C3)n(CC#N)c2=O)c1        > 8.00
13  C[C@@H](C#N)n1c(N2CC[C@@](O)(C(F)F)C2)c(-c2ccc(F)c(C(F)F)c2)c(=O)n(-c2cncc(C#N)c2)c1=O (single isomer, unassigned)        > 8.00
14  Cc1cncc(-n2c(=O)c(Cc3cc(F)c(F)c(F)c3)c(N3CCC(C(F)F)C3)n(CC#N)c2=O)c1 (racemic)        > 8.00
15  N#CCn1c(N2CCC(C(F)F)CC2)c(-c2ccc(F)c(F)c2)c(=O)n(-c2cncc(C#N)c2)c1=O        > 8.00
16  Cc1cncc(-n2c(=O)c(Cc3cc(F)c(F)c(F)c3)c(N3CCC(CO)CC3)n(CC#N)c2=O)c1        > 8.00
17  CC1(O)CN(c2c(-c3ccc(F)c(Cl)c3)c(=O)n(-c3cncc(OC(F)F)n3)c(=O)n2CC#N)C1        > 8.00
18  Cc1cncc(-n2c(=O)c(-c3ccc(F)c(Cl)c3)c(N3CC(C)(C)C3)n(CC#N)c2=O)n1        > 8.00
19  Cc1cncc(-n2c(=O)c(-c3ccc(F)c(Cl)c3)c(-c3cnc(C)nc3)n(CC#N)c2=O)c1        > 8.00
20  Cc1cncc(-n2c(=O)c(Cc3cc(F)c(F)c(F)c3)c(N3CCC4(CC3)CNC(=O)O4)n(CC#N)c2=O)c1        > 8.00
21  N#CCn1cc(-c2ccc(F)c(Cl)c2)c(=O)n(-c2cncc(Cl)c2)c1=O  7.00 to 8.00
22  N#CCn1c(N2CC[C@](O)(C(F)F)C2)c(-c2ccc(F)c(Cl)c2)c(=O)n(-c2cncc(C#N)c2)c1=O        > 8.00
23  Cc1cnnc(-n2c(=O)c(-c3ccc(F)c(Cl)c3)c(N3CC4(C3)CC(F)(F)C4)n(CC#N)c2=O)c1        > 8.00
24  Cc1cncc(-n2c(=O)c(Cc3cc(F)c(F)c(F)c3)c(/C=C/CO)n(CC#N)c2=O)c1        < 7.00
25  C[C@@](O)(CCc1c(-c2ccc(F)c(Cl)c2)c(=O)n(-c2cncc(C#N)c2)c(=O)n1CC#N)C(F)F (single isomer, unassigned)        > 8.00
26  N#CCn1c(N2CC(O)(C(F)(F)F)C2)c(-c2ccc(F)c(Cl)c2)c(=O)n(-c2cncc(Cl)c2)c1=O          9.34
